// provenance: ChEMBL document CHEMBL3872219

What IC50 was measured for each of the following?
assay.summary: Inhibition of HIV1 His-tagged integrase/His-tagged LEDGF/p75 (unknown origin) interaction expressed in Escherichia coli BL21(DE3) preincubated for 30 mins with viral integrase followed by LEDGF/p75 addition measured after 30 mins by HTRF assay
The figure you give is taken to be in µM; do not add the unit.

Challenge: Entry O=C(O)c1cc(N(Cc2ccccc2F)Cc2ccccc2F)ccc1O : reported IC50 = ?
Response given: 17.8

Challenge: Entry O=C(O)c1cc(N(Cc2ccccc2Cl)Cc2ccccc2Cl)ccc1O : reported IC50 = ?
Response given: 3.28

Challenge: // returns reported IC50 for input O=C(O)c1cc(N(Cc2cccc(Cl)c2)Cc2cccc(Cl)c2)ccc1O
Response given: 19.5

Challenge: Bench note: what IC50 did Cc1ccccc1CN(Cc1ccccc1C)c1ccc(O)c(C(=O)O)c1 show?
Response given: 27.6

Challenge: Value lookup for IC50; key = O=C(O)c1cc(N(Cc2ccccc2)Cc2ccccc2)ccc1O
Response given: 8.75

Challenge: Find the recorded IC50 belonging to O=C(O)c1cc(N(Cc2cccc(F)c2)Cc2cccc(F)c2)ccc1O and report it.
Response given: 20.8
